FYI, the data here is from patent US20260176265A1.

# Assay target: Phospho-EGFR (Tyr1068) in H1975 C797S cells (Homo sapiens, UniProt P00533, C797S/L858R/T790M)
# Construct: endogenous in cells
# Sequence (P00533 25-1210 T790M/C797S/L858R): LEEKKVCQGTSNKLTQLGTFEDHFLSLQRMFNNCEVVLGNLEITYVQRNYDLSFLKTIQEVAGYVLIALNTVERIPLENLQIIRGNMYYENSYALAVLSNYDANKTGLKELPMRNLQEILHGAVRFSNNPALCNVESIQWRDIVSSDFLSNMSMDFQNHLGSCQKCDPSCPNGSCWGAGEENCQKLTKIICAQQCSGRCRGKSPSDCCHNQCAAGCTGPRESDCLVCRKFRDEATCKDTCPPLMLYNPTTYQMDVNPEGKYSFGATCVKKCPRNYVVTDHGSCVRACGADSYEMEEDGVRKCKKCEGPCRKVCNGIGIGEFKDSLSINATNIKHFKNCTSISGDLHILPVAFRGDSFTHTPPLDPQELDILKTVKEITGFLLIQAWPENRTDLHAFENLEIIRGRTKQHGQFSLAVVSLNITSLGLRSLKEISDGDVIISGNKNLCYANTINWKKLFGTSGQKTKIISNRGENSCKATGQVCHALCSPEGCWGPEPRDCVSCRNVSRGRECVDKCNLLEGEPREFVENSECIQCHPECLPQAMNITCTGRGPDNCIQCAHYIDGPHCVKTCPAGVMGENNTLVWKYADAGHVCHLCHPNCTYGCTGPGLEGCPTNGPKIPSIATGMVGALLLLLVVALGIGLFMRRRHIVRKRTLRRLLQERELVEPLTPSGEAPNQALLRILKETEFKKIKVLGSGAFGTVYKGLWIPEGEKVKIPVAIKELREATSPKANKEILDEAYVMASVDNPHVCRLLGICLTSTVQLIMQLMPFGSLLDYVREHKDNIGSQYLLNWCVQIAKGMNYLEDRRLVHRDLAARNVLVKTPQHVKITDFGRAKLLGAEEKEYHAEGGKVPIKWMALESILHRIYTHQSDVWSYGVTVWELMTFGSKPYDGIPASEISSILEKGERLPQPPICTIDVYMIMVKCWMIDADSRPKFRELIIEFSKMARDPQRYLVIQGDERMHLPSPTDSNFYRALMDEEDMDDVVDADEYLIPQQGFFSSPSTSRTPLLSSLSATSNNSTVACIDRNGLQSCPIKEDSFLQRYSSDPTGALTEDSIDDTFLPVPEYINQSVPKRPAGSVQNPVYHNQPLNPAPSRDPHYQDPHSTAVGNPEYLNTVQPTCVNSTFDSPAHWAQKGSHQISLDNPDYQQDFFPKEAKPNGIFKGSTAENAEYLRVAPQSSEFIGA
# Assay method text: HTRF pEGFR/total EGFR assay in H1975 C797S cells
# Condition info: H1975 C797S cells (CRISPR), compound 3 hours, ratio pEGFR/total EGFR
# Method: H1975 C797S cells (ATCC CRL-5908) were genetically engineered by CRISPR editing of EGFR C797S in house and validated by NGS. Cells were plated at 20,000 cells per well in 96 well plates and placed at 37° C. 5% CO2. […] Cells were lysed on a plate shaker (2000 rpm) for 30 minutes at room temperature. pEGFR expression was monitored using the Cisbio Phospho-EGFR (Tyr1068) cellular kit (64EG1PEH). […] Fluorescence emission was read at two different wavelengths (665 nm and 620 nm) on a PheraStar. […]
Property measured: IC50

Below, each entry is followed by its recorded IC50 result.
# Molecule, Experimental result
data = [
    ("C#Cc1cc(NC(=O)NC2(C(F)(F)F)CCCC2)nc2nc(Nc3ccc(N4CCN(C)CC4)cc3)ncc12", "< 0.5 µM"),
    ("C#Cc1cc(NS(C)(=O)=O)nc2c1=CNC(Nc1ccc(N(C)CCN(C)C)cc1)N=2 (centres unmarked)", "> 3 µM"),
    ("C#Cc1cc(NC(=O)NC2CCCC2)nc2nc(Nc3ccc(N4CCOCC4)cc3)ncc12", "< 0.5 µM"),
    ("C#Cc1cc(Nc2nccn2C)nc2nc(Nc3ccc(N4CCN(C)CC4)cc3)ncc12", "1 to 3 µM"),
    ("C#Cc1cc(-n2cccc2)nc2nc(Nc3ccc(N4CCN(C)CC4)cc3)ncc12", "> 3 µM"),
    ("C#Cc1cc(N2C(=O)OC[C@H]2C(C)C)nc2nc(Nc3ccc(N4CCN(C)CC4)cc3)ncc12", "0.5 to 1 µM"),
    ("C#Cc1cc(NC(=O)NCc2ccccn2)nc2nc(Nc3ccc(N4CCN(C)CC4)cc3)ncc12", "1 to 3 µM"),
]

Name the recorded IC50 of the molecule listed here: C#Cc1cc(OC)nc2nc(Nc3ccc(N4CCN(C)CC4)c(N(C)C)c3)ncc12 > 3 µM

----------
I'd appreciate it if you could supply IC50 values for the items below.
# Assay target: Phospho-EGFR (Tyr1068) in A431 cells (Homo sapiens)
# Construct: endogenous in cells
# Sequence (P00533 25-1210): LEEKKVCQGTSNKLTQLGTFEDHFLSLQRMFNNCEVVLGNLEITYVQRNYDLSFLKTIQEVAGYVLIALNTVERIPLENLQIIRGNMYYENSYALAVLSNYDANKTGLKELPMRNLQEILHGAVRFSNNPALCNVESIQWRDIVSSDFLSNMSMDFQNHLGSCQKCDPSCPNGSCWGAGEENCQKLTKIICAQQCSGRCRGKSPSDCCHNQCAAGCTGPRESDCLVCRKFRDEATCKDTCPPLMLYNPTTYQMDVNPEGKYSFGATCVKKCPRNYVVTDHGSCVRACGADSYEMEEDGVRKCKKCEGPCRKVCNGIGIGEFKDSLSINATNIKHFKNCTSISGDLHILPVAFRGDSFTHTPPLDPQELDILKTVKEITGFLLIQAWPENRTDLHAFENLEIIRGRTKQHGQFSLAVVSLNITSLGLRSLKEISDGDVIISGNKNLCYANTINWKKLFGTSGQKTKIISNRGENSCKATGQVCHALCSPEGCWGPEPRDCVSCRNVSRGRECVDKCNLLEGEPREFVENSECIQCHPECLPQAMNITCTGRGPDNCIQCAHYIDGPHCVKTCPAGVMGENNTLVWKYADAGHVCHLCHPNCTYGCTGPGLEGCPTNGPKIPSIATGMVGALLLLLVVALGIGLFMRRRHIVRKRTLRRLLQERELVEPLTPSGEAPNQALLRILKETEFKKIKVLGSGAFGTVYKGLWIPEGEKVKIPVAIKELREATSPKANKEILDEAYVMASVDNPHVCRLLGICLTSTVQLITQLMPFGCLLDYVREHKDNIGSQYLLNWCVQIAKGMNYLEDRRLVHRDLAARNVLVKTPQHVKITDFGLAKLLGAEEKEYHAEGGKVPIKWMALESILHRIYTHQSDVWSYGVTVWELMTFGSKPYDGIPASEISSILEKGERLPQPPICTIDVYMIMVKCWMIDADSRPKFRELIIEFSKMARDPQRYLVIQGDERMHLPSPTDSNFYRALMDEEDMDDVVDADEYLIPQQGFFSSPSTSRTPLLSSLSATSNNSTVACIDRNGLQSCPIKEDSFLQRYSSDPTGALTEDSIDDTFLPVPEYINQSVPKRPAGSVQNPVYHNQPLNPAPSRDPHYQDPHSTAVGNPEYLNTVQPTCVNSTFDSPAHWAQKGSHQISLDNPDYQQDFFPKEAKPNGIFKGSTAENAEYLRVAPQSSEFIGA
# Assay method text: HTRF pEGFR/total EGFR assay in A431 cells (EGF stimulated)
# Condition info: compound 2.5 hours then 100 ng/ml EGF 30 mins, ratio pEGFR/total EGFR

# Compound, IC50
measured = [
    ("C#Cc1cc(Oc2ccccc2)nc2nc(Nc3ccc(N4CCN(C)CC4)cc3)ncc12 [Example 12]", "> 3 µM"),
    ("C#Cc1cc(N2C(=O)OC[C@@H]2C(C)C)nc2nc(Nc3ccc(N4CCN(C)CC4)cc3)ncc12 [Example 70]", "0.5 to 1 µM"),
    ("C#Cc1cc(NC(=O)NCc2ccccc2)nc2nc(Nc3ccc(N4CCN(C)CC4)cc3)ncc12 [Example 39]", "> 3 µM"),
]

We now examine a further compound.
Name the recorded IC50 of the compound listed here: C#Cc1cc(N2C(=O)NCC2C(C)C)nc2nc(Nc3ccc(N4CCN(C)CC4)cc3)ncc12 (stereo not shown) [Example 64] < 0.5 µM
